Test system Staphylococcus aureus ATCC 12600, MIC listed for each of the molecules.

// known answers, use as guide
Prompt: Find the recorded MIC belonging to COC(=O)N/C=C/CCC(C)c1cc(O)c(C(=O)C(C)=Cc2cccc(OCCC(C)(C)C)c2)c(=O)o1 (mixture of isomers) and report it.
Response: > 40 µg/mL

Prompt: Find the recorded MIC belonging to COC(=O)N/C=C/CCC(C)c1cc(O)c(C(=O)C(C)=Cc2ccc(CCC(C)C)cc2)c(=O)o1 (mixture of isomers) and report it.
Response: 0.6 µg/mL

With those in mind, consider the next molecule.
Prompt: Find the recorded MIC belonging to COC(=O)N/C=C/CCC(C)c1cc(O)c(C(=O)C(C)=Cc2cc3ccc(CCC(C)C)cc3o2)c(=O)o1 (mixture of isomers) and report it.
Response: > 40 µg/mL

###

Target: E. coli RNA polymerase σ^70 holoenzyme (Escherichia coli, UniProt P0A8T7+P0A8V2)
Sequence (P0A8T7 whole entry): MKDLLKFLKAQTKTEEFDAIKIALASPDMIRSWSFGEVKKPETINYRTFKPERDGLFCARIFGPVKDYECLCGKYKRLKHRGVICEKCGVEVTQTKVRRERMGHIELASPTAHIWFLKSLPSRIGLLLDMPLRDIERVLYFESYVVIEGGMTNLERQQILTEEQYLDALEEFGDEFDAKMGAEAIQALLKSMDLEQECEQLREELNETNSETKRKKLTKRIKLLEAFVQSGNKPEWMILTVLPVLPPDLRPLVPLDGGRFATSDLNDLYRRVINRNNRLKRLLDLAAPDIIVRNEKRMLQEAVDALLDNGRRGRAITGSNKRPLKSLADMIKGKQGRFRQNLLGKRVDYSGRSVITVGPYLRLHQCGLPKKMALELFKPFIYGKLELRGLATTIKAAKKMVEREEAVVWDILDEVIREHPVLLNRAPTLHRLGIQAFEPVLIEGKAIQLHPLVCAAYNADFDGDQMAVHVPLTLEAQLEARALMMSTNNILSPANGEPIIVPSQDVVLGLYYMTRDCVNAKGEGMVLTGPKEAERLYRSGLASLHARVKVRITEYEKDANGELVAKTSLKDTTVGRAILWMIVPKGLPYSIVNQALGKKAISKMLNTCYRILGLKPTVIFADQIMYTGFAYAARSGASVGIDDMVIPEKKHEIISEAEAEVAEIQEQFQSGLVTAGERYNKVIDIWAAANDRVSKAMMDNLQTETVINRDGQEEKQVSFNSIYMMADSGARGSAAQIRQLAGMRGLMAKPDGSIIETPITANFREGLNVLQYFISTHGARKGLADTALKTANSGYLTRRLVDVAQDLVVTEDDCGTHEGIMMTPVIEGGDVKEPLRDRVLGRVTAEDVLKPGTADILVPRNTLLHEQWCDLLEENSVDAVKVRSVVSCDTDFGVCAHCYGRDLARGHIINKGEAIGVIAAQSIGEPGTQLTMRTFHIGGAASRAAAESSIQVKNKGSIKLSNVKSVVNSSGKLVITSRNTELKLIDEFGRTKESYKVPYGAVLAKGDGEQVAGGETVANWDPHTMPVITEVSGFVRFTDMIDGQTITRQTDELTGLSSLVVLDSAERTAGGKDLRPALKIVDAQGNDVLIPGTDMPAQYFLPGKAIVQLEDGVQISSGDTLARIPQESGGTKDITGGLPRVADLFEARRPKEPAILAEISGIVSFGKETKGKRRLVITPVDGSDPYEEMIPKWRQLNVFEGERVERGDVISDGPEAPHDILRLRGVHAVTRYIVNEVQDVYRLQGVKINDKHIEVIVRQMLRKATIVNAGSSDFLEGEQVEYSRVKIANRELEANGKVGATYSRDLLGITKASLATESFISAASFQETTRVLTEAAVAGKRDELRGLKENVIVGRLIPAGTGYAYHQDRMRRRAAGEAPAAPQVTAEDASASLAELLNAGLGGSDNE
Sequence (P0A800 whole entry, further chain): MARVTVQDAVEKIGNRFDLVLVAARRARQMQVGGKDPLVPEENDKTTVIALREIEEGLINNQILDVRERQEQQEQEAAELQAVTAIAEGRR
Sequence (P0A8V2 whole entry): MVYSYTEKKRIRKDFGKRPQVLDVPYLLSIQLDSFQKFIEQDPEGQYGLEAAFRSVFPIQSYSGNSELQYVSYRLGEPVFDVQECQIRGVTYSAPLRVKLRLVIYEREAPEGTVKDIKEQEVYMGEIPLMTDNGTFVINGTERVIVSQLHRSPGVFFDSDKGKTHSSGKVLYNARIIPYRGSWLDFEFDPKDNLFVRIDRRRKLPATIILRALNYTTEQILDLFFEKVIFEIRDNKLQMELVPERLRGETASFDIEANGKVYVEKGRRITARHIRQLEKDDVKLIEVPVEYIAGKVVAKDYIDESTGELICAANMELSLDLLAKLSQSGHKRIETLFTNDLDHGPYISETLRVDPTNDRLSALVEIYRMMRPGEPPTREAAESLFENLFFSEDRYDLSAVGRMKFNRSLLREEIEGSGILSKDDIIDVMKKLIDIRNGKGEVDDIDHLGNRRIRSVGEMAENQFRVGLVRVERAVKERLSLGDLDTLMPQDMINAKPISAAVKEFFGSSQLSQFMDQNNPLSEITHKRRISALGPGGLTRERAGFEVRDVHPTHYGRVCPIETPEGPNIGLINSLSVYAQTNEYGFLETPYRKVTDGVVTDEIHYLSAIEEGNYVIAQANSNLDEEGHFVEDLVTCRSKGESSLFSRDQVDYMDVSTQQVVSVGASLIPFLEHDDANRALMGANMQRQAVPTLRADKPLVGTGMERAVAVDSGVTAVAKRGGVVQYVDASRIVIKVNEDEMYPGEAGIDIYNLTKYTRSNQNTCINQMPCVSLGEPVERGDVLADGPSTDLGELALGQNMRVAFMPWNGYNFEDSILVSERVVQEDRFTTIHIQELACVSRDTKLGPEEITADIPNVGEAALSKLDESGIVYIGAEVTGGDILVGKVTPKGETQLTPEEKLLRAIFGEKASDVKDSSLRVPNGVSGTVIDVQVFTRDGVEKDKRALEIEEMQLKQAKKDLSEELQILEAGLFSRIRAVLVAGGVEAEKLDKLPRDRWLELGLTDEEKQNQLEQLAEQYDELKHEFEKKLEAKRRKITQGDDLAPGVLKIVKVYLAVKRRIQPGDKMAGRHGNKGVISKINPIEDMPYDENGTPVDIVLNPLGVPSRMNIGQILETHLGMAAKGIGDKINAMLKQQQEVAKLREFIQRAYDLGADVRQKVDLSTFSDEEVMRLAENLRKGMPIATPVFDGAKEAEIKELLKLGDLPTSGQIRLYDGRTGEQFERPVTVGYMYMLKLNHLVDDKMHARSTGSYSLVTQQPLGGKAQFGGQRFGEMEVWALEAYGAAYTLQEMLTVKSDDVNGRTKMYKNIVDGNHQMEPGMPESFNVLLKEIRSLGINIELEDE
Sequence (P00579 whole entry, further chain): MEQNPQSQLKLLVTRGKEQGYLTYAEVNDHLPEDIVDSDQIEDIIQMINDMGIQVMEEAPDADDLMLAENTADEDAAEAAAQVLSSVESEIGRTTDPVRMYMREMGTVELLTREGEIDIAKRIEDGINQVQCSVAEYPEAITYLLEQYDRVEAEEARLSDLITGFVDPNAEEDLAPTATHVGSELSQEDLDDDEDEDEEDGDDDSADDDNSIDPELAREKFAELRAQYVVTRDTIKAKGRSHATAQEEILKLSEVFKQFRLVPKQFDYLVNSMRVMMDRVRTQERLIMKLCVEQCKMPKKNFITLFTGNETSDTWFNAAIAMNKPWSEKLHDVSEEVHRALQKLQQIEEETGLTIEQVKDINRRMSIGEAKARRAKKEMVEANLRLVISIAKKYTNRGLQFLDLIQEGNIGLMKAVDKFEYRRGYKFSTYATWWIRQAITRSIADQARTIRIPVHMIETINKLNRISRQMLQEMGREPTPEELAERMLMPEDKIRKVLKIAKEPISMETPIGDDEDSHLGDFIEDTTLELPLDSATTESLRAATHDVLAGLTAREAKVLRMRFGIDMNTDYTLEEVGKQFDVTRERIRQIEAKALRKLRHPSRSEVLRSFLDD
Sequence (P0A7Z4 whole entry, further chain): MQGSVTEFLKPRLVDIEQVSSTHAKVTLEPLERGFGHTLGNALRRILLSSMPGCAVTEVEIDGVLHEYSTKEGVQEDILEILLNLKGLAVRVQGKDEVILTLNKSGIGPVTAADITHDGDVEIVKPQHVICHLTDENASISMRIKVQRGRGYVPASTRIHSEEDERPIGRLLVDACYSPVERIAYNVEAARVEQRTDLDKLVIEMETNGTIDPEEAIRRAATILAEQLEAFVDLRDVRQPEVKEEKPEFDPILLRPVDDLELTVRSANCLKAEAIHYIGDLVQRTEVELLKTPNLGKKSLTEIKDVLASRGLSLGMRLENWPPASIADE
Assay: Fluorescence-detected RNA polymerase assay, E. coli RNA polymerase
Settings: read-out: IC50 E. coli RNAP
readout: pIC50
Expect pIC50 as a plain number equal to -log10 of the molar concentration.

// known answers, use as guide
Prompt: Find the recorded pIC50 belonging to CCCOc1ccc(C=C(C)C(=O)c2c(O)cc(C(C)CC/C=C/NC(=O)OC)oc2=O)c(C)c1 (mixture of isomers) and report it.
Response: 6.30

Prompt: Find the recorded pIC50 belonging to COC(=O)N/C=C/CCC(C)c1cc(O)c(C(=O)C(C)=Cc2cc3cc(CCC(C)C)ccc3n2C)c(=O)o1 (mixture of isomers) and report it.
Response: 7.40

Prompt: Find the recorded pIC50 belonging to C=CCCCCc1ccc(C=C(C)C(=O)c2c(O)cc(C(C)CC/C=C/NC(=O)OC)oc2=O)s1 (mixture of isomers) and report it.
Response: 7.40

Prompt: Find the recorded pIC50 belonging to CCCc1ccc(C=C(C)C(=O)c2c(O)cc(C(C)CC/C=C/NC(=O)OC)oc2=O)cc1 (mixture of isomers) and report it.
Response: 6.40

---
Prompt: Find the recorded pIC50 belonging to CCc1ccc(C=C(C)C(=O)c2c(O)cc(C(C)CC/C=C/NC(=O)OC)oc2=O)s1 (mixture of isomers) and report it.
Response: 6.70

Prompt: Find the recorded pIC50 belonging to COC(=O)N/C=C/CCC(C)c1cc(O)c(C(=O)C(C)=Cc2ccc(CC(C)C)s2)c(=O)o1 (mixture of isomers) and report it.
Response: 8.00

Prompt: Find the recorded pIC50 belonging to CCCCCCc1ccc2oc(C=C(C)C(=O)c3c(O)cc(C(C)CC/C=C/NC(=O)OC)oc3=O)cc2c1 (mixture of isomers) and report it.
Response: 8.40

###

Target: E. coli RNA polymerase σ^70 holoenzyme (Escherichia coli, UniProt P0A8T7+P0A8V2)
Assay: Fluorescence-detected RNA polymerase assay, E. coli RNA polymerase
Settings: read-out: IC50 E. coli RNAP
Flag rule - IC50 less than 50 nM flags yes (1); the remaining entries get no (0).

Known results for molecules:
Prompt: Input COC(=O)N/C=C/CCC(C)c1cc(O)c(C(=O)C(C)=Cc2ccc(OC(C)C)cc2C)c(=O)o1 (mixture of isomers) [APY130] ; condition: IC50 strictly below 50 nM. Does it hold?
Response: no (0)

Prompt: Input COC(=O)N/C=C/CCC(C)c1cc(O)c(C(=O)C(C)=Cc2ccc(OCCC(C)C)cc2)c(=O)o1 (mixture of isomers) [APY50] ; condition: IC50 strictly below 50 nM. Does it hold?
Response: no (0)

Prompt: Input CCCCCCc1csc(C=C(C)C(=O)c2c(O)cc(C(C)CC/C=C/NC(=O)OC)oc2=O)c1 (mixture of isomers) [APY18] ; condition: IC50 strictly below 50 nM. Does it hold?
Response: yes (1)

Prompt: Input CCCC/C(C)=C/C=C(\C)C(=O)c1c(O)cc([C@H](C)CC/C=C/NC(=O)OC)oc1=O [Myx B, myxopyronin B, reference compound] ; condition: IC50 strictly below 50 nM. Does it hold?
Response: yes (1)

Prompt: Input COC(=O)N/C=C/CCC(C)c1cc(O)c(C(=O)C(C)=Cc2ccc(CCC(C)C)s2)c(=O)o1 (mixture of isomers) [APY31] ; condition: IC50 strictly below 50 nM. Does it hold?
Response: yes (1)

---
Prompt: Input CCCCOc1ccc(C=C(C)C(=O)c2c(O)cc(C(C)CC/C=C/NC(=O)OC)oc2=O)cc1 (mixture of isomers) [APY39] ; condition: IC50 strictly below 50 nM. Does it hold?
Response: no (0)
